B1: Flag-CNK^2–549 [Drosophila] / GST-HYP [Drosophila] (parent complex)
chain 1: AYINIAEWTPDQVTDWIKGLDESMKGYLYEFSKQEIGGRALLNIRPYELENLGMLRIGHQEIVLEAVENLRNFHYHLKNDNLQFMALHVATAAKNLHRELARNHAESTKIDTRILHDITRTIATLKPLVGSLERTPFRKQEMYREYCGNVLKCGLELATIAHRDRFALQPVPAIRQSAERLENLANFVIQDISDPMVLQPASLNLVTLKKRESELGFNIESSYNGIHRVTDIKYNSPAHNSGKIEDGDEIVQINYQTVVGWQHRTVLEHLREALPDVVLTVKKRPKHTKMFGQIYMQPYRLPSKKRNMAARWAAQMPSPRAAFLTLDTEQLATGGTGSAVPDPSKSLSSEKREVLTKANPVSSASDSDSSCSDIPTPTDPKLAAREIRLYYPKPRALLQRRNTICGCEYLSLKNSDLVVPSWHERKPGIGSPTNCDPGSPSIRDKSISFGYGLEMAARPTTCIGIAGDTSTDKARRMFHEARKLKQLTEDSQREFLVDRYKPGVSKVVRFDAKEDYVMKNEKFICNVENTILETFEPIPFADEGDEDA
chain 2: MGEETINSTQNKTRTKTTRPKAVYLWTVSDVLKWYRRHCGEYTQYEQLFAQHDITGRALLRITDSSLQRMGVTDNRDREAIWREIVKQRLKTDIMEIRDMERLNIY

Variants of: B1
Test: GST pull-down, immunoblot quantification; S2 cells; only Flag-CNK2–549 and GST-HYP co-expressed; anti-Flag blot; parent: 1
attribute-measured: ratio to parent

Solved cases (3 shown):
| mutant-code | ratio to parent |
| --- | --- |
| chain 1 V251R | 0.07 |
| chain 1 E249R, chain 1 V251R | 0.05 |
| chain 1 F73R | 0.91 |

[a] chain 1 E249R
[b] chain 1 F73R, chain 1 E249R
[c] chain 1 A66F
[d] chain 1 A66F, chain 1 F73R
[e] chain 1 F73R, chain 1 V251R
Ask | Reorder: ratio to parent, max to min. Please list the labels in the order you were asked to rank them.
Reply | a, c, d, b, e
(a: 0.75, c: 0.29, d: 0.12, b: 0.06, e: 0.04)
